# melting point per entry

Compound: CCCCCCCCOc1cnc(-c2ccc(C#CCCCC(C)OC(C)=O)cc2)nc1 (stereo not given)
melting point: 58 to 59 °C

Compound: Cc1c(C)c2c(c(C)c1NC(=O)CC(C)(C)C)C(c1ccc(CCCO)cc1)CO2 (stereo not given)
melting point: 119 to 120 °C

Compound: CCc1nnc(CCCOc2c(C)cc(N)c(C=NO)c2C)s1
melting point: 158 to 160 °C

Compound: CCOC(=O)C1C(=O)Nc2ccccc2SC1c1ccc(OC)cc1 (stereo not given)
melting point: 192 °C

Compound: O=c1[nH]c2cc(Cl)ccc2n1CCO
melting point: 176 to 178 °C

###

# melting point per entry

Compound: Cc1cccc(NC(=O)NC2N=C(CC(C)C)c3cccc(C)c3N(CC(=O)N3CCCCCCC3)C2=O)c1 (configuration not stated)
melting point: 132 to 133 °C
--
Compound: Cc1ccc(S(=O)(=O)OC[C@@H]2CCCN(C)C2)cc1
melting point: 74.5 to 81 °C
--
Compound: CC1(O)CCC2(C)C(CCC3C2CCC2(C)C(C(=O)COc4ccc([N+](=O)[O-])cc4)CCC32)C1 (configuration not stated)
melting point: 169 to 172 °C
--
Compound: O=C(NC(=O)N1CCC(COc2ccccc2)CC1)c1ccc(O)cc1
melting point: 207 °C
--
Compound: O=C(CCc1ccccc1)Nc1cc(-c2ccccc2)[nH]n1
melting point: 168 to 170 °C
--
Compound: O=[N+]([O-])c1ccc2oc(-c3cccs3)nc2c1
melting point: 186 to 188 °C
--
Compound: O=c1[nH]c(CCl)c(I)c(=O)[nH]1
melting point: 225 °C
--
Compound: CCCCc1ccc(S(=O)(=O)Nc2nncs2)cc1
melting point: 120 to 121 °C
--
Compound: C=CCOc1ccc(S(=O)(=O)c2ccc(OCC=C)cc2)cc1
melting point: 140 to 142 °C
--
Compound: N#Cc1ccccc1-c1ccc2[nH]ncc2c1
melting point: 163 to 170 °C
--
Compound: CC(=O)Nc1c(C)c2c(c(C)c1N(C)C)OC(C)(C)C2
melting point: 142 to 143 °C
--
Compound: CC(C)C1COCc2nc3c(N)nc4ccccc4c3n21 (configuration not stated)
melting point: 249 to 250 °C
--
Compound: N#Cc1c(S(=O)(=O)C(F)(F)C(F)Cl)[nH]c2ccccc12 (configuration not stated)
melting point: 164 to 167 °C
--
Compound: CNC(=NC#N)NCCCSc1nccc(NC(N)=NCC(F)(F)F)n1
melting point: 159 to 160 °C
--
Compound: NNC(=O)c1ccnc2[nH]ccc12
melting point: 239 to 240 °C
--
Compound: CCCNC(=O)C1(O)CC(O)C(O)C(O)C1 (configuration not stated)
melting point: 132 to 133 °C
--
Compound: COc1ccc(Oc2c([N+](=O)[O-])cc(C(=O)O)cc2S(N)(=O)=O)cc1
melting point: 229 to 230 °C
--
Compound: CC(=O)C1=C(O)C(=C(C)Nc2cc(NC(=O)C(O)CO)cc(NC(=O)C(O)CO)c2)C(=O)OC1=O (configuration not stated)
melting point: 231 °C
--
Compound: CCOCc1nc2c(N)nc3cccnc3c2n1CCCCN(OC)C(C)=O
melting point: 180 to 181 °C
--
Compound: COc1cc2c(cc1O)CC(C)(C)N(C(=O)c1cc(OC)c(OC)c(OC)c1)C2C (configuration not stated)
melting point: 198 to 200 °C
--
Compound: CCOC(=O)C(O)=Cc1cc(OCc2ccccc2)ncn1
melting point: 136 to 137 °C
--
Compound: CC(c1cc(C#N)ncn1)C(O)(Cn1cncn1)c1ccc(F)cc1F (configuration not stated)
melting point: 148 to 149 °C

This collection of values is drawn from a melting point compilation (Tetko et al.; mined from patent text by program, amines drawn as free bases though some values may be those of a salt).
